# TARGET UNDER TEST: Cytochrome P450 2C9 (Homo sapiens) (UniProt P11712)
# Sequence (P11712 whole entry, looked up): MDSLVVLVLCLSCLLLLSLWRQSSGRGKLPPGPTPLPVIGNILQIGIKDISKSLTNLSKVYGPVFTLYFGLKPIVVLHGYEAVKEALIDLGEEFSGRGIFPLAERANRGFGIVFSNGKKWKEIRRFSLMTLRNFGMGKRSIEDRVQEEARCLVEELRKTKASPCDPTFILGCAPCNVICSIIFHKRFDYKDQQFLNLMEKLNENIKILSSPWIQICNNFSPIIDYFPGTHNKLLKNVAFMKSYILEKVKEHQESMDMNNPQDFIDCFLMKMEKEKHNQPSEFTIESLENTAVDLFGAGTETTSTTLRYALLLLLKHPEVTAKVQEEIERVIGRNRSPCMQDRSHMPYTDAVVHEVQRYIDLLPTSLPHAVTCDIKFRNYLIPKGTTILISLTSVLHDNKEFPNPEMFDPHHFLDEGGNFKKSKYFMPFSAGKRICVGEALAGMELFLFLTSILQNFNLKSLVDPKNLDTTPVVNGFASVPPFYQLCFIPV
# PROTOCOL NOTES: Cytochrome P450 Family 2 Subfamily C Member 9 (CYP2C9) small molecule antagonists: luciferase reporter qHTS assay (AID 1671198); further: nearly all actives have a fitted effect of over 50% in size
# ASSAY CONTEXT: P450-Glo CYP2C9 enzyme assay, luciferin luminescence; series mostly up to 115 µM
Records with an inconclusive call do not appear. Active and inactive are the calls of the source. The call rests on the fitted dose curve; in most records, active means well fitted inhibition curve with a large enough effect in the repeat runs; inconclusive means weak or mixed curves; inactive means no such curve, though single readings can be large or run the other way.
Use one of these outcomes when replying: active, inactive

> print(dat)
                  compound  discrete.label
1               ClCCCCCCCl        inactive
2              CCCCOC(C)=O        inactive
3             COc1ccccc1OC        inactive
4  Oc1ccc(Cc2ccc(O)cc2)cc1        inactive
5         Cc1ccc(Cl)c(O)c1        inactive
6     CCc1ccc(C2CCNCC2)cc1        inactive

Inquiry: Could you check what this test reported for CCCCCCCCSC(=O)Oc1cc(Cl)nnc1-c1ccccc1 ?
Reply text: active

Inquiry: Could you check what this test reported for C1CN2CCC1CC2 ?
Reply text: inactive

Inquiry: Could you check what this test reported for N[C@@H]1C[C@H]1c1ccccc1 ?
Reply text: active

Inquiry: Could you check what this test reported for O=C(NC(O)C(Cl)(Cl)Cl)NC(O)C(Cl)(Cl)Cl (stereo not given) ?
Reply text: inactive

Inquiry: Could you check what this test reported for CC(Cc1ccccc1)NCCn1cnc2c1c(=O)n(C)c(=O)n2C (stereo not given) ?
Reply text: inactive

Inquiry: Could you check what this test reported for O=C(Cl)C(Cl)Cl ?
Reply text: inactive

Inquiry: Could you check what this test reported for O=C1CCCCC1Cl (stereo not given) ?
Reply text: inactive

Inquiry: Could you check what this test reported for COc1ccc(C=O)cc1O ?
Reply text: inactive

Inquiry: Could you check what this test reported for CC(C)(O)C(Cl)(Cl)Cl ?
Reply text: inactive

* * *

# PROTOCOL NOTES: qHTS assay for small molecules that induce genotoxicity in human embryonic kidney cells expressing luciferase-tagged ATAD5 (AID 651632); further: nearly all actives have a fitted effect of over 15% in size
# ASSAY CONTEXT: HEK293T ATAD5-luciferase induction, 16 h; series mostly up to 83.3 µM
Inconclusive results are not listed. The source made the active and inactive calls. The call rests on the fitted dose curve; in most records, active means well fitted activation curve with a large enough effect in the repeat runs; inconclusive means weak or mixed curves; inactive means no such curve, though single readings can be large or run the other way.
PROPERTY: activation

Solved cases (4 shown):
> print(dat)
                              smiles.string  measured.result
1    Cn1c(CCCC(=O)O)nc2cc(N(CCCl)CCCl)ccc21         inactive
2                        N#CC(Br)(Br)C(N)=O         inactive
3                   C=CCc1cc(OC)c2c(c1)OCO2         inactive
4  C=CCN1CC[C@]23CCCC[C@H]2[C@H]1Cc1ccc(O)cc13         inactive

Inquiry: Specify activation for CCC(=O)OC1(c2ccccc2)CCN(C)CC1 and stop.
Reply text: inactive

Inquiry: Specify activation for CCN(CC)CCOC(=O)C(O)(c1ccccc1)c1ccccc1 and stop.
Reply text: inactive

Inquiry: Specify activation for CC(C)(O)C(Cl)(Cl)Cl and stop.
Reply text: inactive

Inquiry: Specify activation for CCOP(=O)(CN(CCO)CCO)OCC and stop.
Reply text: inactive

Inquiry: Specify activation for CCC1(CC)C(=O)C=CNC1=O and stop.
Reply text: inactive

Inquiry: Specify activation for CCN(CCO)CCO and stop.
Reply text: inactive

Inquiry: Specify activation for O=C(Cl)c1ccccc1 and stop.
Reply text: inactive

Inquiry: Specify activation for O=C(O)C(F)(F)C(F)(F)C(F)(F)C(F)(F)C(F)(F)C(F)(F)F and stop.
Reply text: inactive

The reported measurements were obtained from PubChem BioAssay (Tox21).
